Tested on: J774.A1
protocol: Inhibition of LPS-induced TNFalpha secretion in mouse J774A.1 cells at 20 uM after 24 hrs by ELISA; values are per cent of control
assay_setup: J774.A1, 24 h
Known level, % of control at 20 µM of a selection of molecules
attribute_measured: level, % of control at 20 µM (%)

molecule	attribute_measured	result_value
C=C1CC[C@@H]2[C@](C)(CO)[C@H](O)CC[C@@]2(C)[C@@H]1CC(OC(=O)c1ccccc1)C1=CCOC1=O (some centres undefined)	level, % of control at 20 µM	60.8
C=C1CC[C@@H]2[C@](C)(CO)[C@H](O)CC[C@@]2(C)[C@@H]1CC(OC(=O)c1ccc(C)cc1)C1=CCOC1=O (some centres undefined)	level, % of control at 20 µM	41.6
C[C@]1(COC=O)[C@H]2CC[C@@]3(C)OC(C4=CCOC4=O)CC3[C@]2(C)CC[C@H]1OC(=O)c1ccccc1 (some centres undefined)	level, % of control at 20 µM	36.5
C=C1CC[C@@H]2[C@](C)(CO)[C@H](O)CC[C@@]2(C)[C@@H]1CC(OC(=O)CC)C1=CCOC1=O (some centres undefined)	level, % of control at 20 µM	96.9
CC(=O)OC[C@@]1(C)[C@H]2CC[C@@]3(C)OC(C4=CCOC4=O)CC3[C@]2(C)CC[C@H]1OC(C)=O (some centres undefined)	level, % of control at 20 µM	99.4
CCC(=O)OC[C@@]1(C)[C@H]2CC[C@@]3(C)OC(C4=CCOC4=O)CC3[C@]2(C)CC[C@H]1OC(=O)CC (some centres undefined)	level, % of control at 20 µM	115
C=C1CC[C@@H]2[C@](C)(CO)[C@H](O)CC[C@@]2(C)[C@@H]1CC(OC(=O)c1ccc([N+](=O)[O-])cc1)C1=CCOC1=O (some centres undefined)	level, % of control at 20 µM	60
C[C@]1(COC(=O)C(=O)CCC(=O)O)[C@H]2CC[C@@]3(C)OC(C4=CCOC4=O)CC3[C@]2(C)CC[C@H]1OC(=O)C(=O)CCC(=O)O (some centres undefined)	level, % of control at 20 µM	129
C=C1CC[C@@H]2[C@](C)(CO)[C@H](O)CC[C@@]2(C)[C@@H]1CC(OC(=O)c1cc2c(cc1[N+](=O)[O-])OCO2)C1=CCOC1=O (some centres undefined)	level, % of control at 20 µM	94.4
C=C1CC[C@@H]2[C@](C)(CO)[C@H](O)CC[C@@]2(C)[C@@H]1CC(OC(=O)CCCCC)C1=CCOC1=O (some centres undefined)	level, % of control at 20 µM	76
C[C@@]12COS(=O)O[C@@H]1CC[C@@]1(C)C3CC(C4=CCOC4=O)O[C@]3(C)CC[C@H]21 (some centres undefined)	level, % of control at 20 µM	231
C=C1CC[C@@H]2[C@](C)(CO)[C@H](O)CC[C@@]2(C)[C@@H]1CC(OC(C)=O)C1=CCOC1=O (some centres undefined)	level, % of control at 20 µM	62.7
C=C1CC[C@@H]2[C@](C)(CO)[C@H](O)CC[C@@]2(C)[C@@H]1C/C=C1/C(=O)OC[C@H]1O [ANDROGRAPHOLIDE]	level, % of control at 20 µM	62.5
C=C1CC[C@@H]2[C@](C)(CO)[C@H](O)CC[C@@]2(C)[C@@H]1CC(OC(=O)C/C=C/c1ccc2c(c1)OCO2)C1=CCOC1=O (some centres undefined)	level, % of control at 20 µM	61
